system: Wolbachia pipientis; assay: Anti-Wolbachia Cell-Based Screen; type: functional; design: scale not given: in the data most compounds retested in dose-response had high values; conditions: 5 µM
Among all 48,000 compounds or so, about 13,000 (27%) showed an effect of 50% or more. The list shows a part of the results.
Listing of entries alongside the reported Percent Effect.
Reply numerically in %, unit not repeated.

# molecule, unitDescriptor, Percent Effect
data = [
    ("C[C@@H]1CN(C(=O)c2ccc[nH]2)C[C@]12CCN(CCN1CCCC1)C2=O.O=C(O)C(F)(F)F", "%", 108.3),
    ("CC(NC(=O)CCCC(=O)c1cccs1)c1nnc2n1CCC2 (stereo unspecified)", "%", 92.19),
    ("Cn1cc(N2CCCC(Nc3ccc4c(c3)NC(=O)CC4)C2=O)cn1 (stereo unspecified)", "%", -4.573),
    ("CCn1cc2c(n1)CN(Cc1sccc1C)CC2COCC1CC1.O=C(O)C(F)(F)F (stereo unspecified)", "%", 6.988),
    ("CCc1ccc(CNC(=O)c2ccc(N3CCOC3=O)cc2)s1", "%", -4.456),
]

Shifting focus to the molecule that follows.
Input line: So what does the record say about Percent Effect for Cn1cccc1C(=O)N1CCCC2(CCN(CCN3CCCC3)C2=O)C1.O=C(O)C(F)(F)F (stereo unspecified) ?
Output line: -2.422

* * *

Listing of entries alongside the reported Percent Effect.
system: Wolbachia pipientis; assay: Anti-Wolbachia Cell-Based Screen; type: functional; design: scale not given: in the data most compounds retested in dose-response had high values; conditions: 5 µM
The whole screen tested about 48,000 compounds, of which about 13,000 (27%) showed an effect of 50% or more. Some of the results follow.
Reply numerically in %, unit not repeated.

Please review the entries below; each comes with its answer.
# molecule, Percent Effect [%]
measured = [
    ("O=C1Nc2ccccc2C1C1CCN(C(=O)C2CC2)CC1 (configuration not stated)", -3.481),
    ("Cc1nc(CNC(=O)NCc2cccnc2N(C)C)cs1", 95.24),
    ("CCOC1CCCN(C(=O)c2[nH]nc(C)c2Br)C1 (configuration not stated)", 6.367),
    ("CN(C)c1ncccc1CNC(=O)NCc1ccc(Cl)s1", 103.5),
    ("O=C(NCCN1CCOCC1)c1cc(-c2ccc3c(c2)CCO3)n[nH]1", 2.601),
]

Input line: So what does the record say about Percent Effect for `Cc1ccc(F)cc1-n1c(CCCN2CCOCC2)n[nH]c1=O` ?
Output line: 109.2

Input line: // same read-out, input: `CCOCc1nn(C)c2c1CN(Cc1cccs1)CC2.O=C(O)C(F)(F)F`
Output line: 87.87

Input line: // same read-out, input: Cc1cccc2c(=O)n(C(C)Cc3cccnc3)cnc12 (configuration not stated)
Output line: 5.15

Input line: // same read-out, input: `Nc1cc(C(=O)N2CCC3(CC2)Nc2ccccc2NC3=O)ccn1`
Output line: 3.743

Input line: // same read-out, input: `O=C(NCc1cccc(F)c1)Nc1ccn(CCN2CCOCC2)n1`
Output line: -19.73

Input line: // same read-out, input: `CC(C)=CCN1CC2(CCN(Cc3cccc(C#N)c3)CC2)CC1=O`
Output line: 0.9714

Input line: // same read-out, input: O=C1CC2(CCN(C(=O)C3CCCCC3)C2)Nc2ccccc2N1 (configuration not stated)
Output line: 102.3

Input line: // same read-out, input: COc1ccc2c(c1)CC(NCc1cccc(OCC(N)=O)c1)CC2 (configuration not stated)
Output line: 2.98

Input line: // same read-out, input: CC(c1nccs1)N(C)Cc1ccc(CCC(C)(C)O)cc1 (configuration not stated)
Output line: -1.522

Input line: // same read-out, input: `CC(C)N1CCC2(CC1)CC(=O)N(Cc1cc(F)cc(F)c1)C2`
Output line: 84.47

Input line: // same read-out, input: `O=C1CCC(=O)N1CCN1CCN(c2cc(F)ccc2F)CC1`
Output line: -16.23

Input line: // same read-out, input: `Cc1nc(CCCN2CCOCC2)n(Cc2ccc(F)cc2)n1`
Output line: -6.384

Input line: // same read-out, input: `CCNc1ncc(C(=O)N(C)Cc2nc3cc(Cl)ccc3[nH]2)cn1`
Output line: 4.323

Input line: // same read-out, input: `COc1ccccc1-c1ncc(CN2C[C@@H](N(C)C)[C@H](C(C)C)C2)s1`
Output line: -33.52

* * *

tested on: Wolbachia pipientis; assay: Anti-Wolbachia Cell-Based Screen; assay type: functional; set-up: scale not given: in the data most compounds retested in dose-response had high values; conditions: 5 µM
Out of some 48,000 compounds screened, about 13,000 (27%) showed an effect of 50% or more. The list shows a part of the results.
valueKind: Percent Effect (%)
Reply numerically in %, unit not repeated.

Please review the entries below; each comes with its answer.
# compound, unitDescriptor, readoutNumber
records = [
    ("Cc1cccc(NS(=O)(=O)c2ccc(C#N)nc2)c1C#N", "%", -1.647),
    ("Cc1nn(C)c(Cl)c1C1CCCN1CCc1ccccn1 (stereo unspecified)", "%", 5.429),
    ("CCN(CC)C(=O)[C@@H]1C[C@@H](N)CN1C(=O)c1cc2c([nH]c1=O)CCC2", "%", -5.971),
    ("COc1c(C2CCCN2CC(=O)NCc2ccccn2)c(C)nn1C (stereo unspecified)", "%", 101.4),
    ("CC(=O)NCCNC(=O)NCCc1c(C)cc(C)cc1C", "%", -0.992),
]

Shifting focus to the compound that follows.
Input line: // fetch Wolbachia pipientis Percent Effect for Cc1nn(C)c(Cl)c1C1CCCN1Cc1ccccn1 (stereo unspecified)
Output line: 85.99

* * *

test system: Wolbachia pipientis; assay: Anti-Wolbachia Cell-Based Screen; type: functional; design: scale not given: in the data most compounds retested in dose-response had high values; details: 5 µM
Among all 48,000 compounds or so, about 13,000 (27%) showed an effect of 50% or more. Some of the results follow.
valueKind: Percent Effect (%)
Reply numerically in %, unit not repeated.

# compound, system, Percent Effect (%)
data = [
    ("CCc1noc(C)c1C(=O)Nc1cnn(CC(=O)NC2CCCC2)c1", "Wolbachia pipientis", 1.161),
    ("CC(=O)c1ccc(C(=O)NCc2ccnc(N(C)C)n2)cc1", "Wolbachia pipientis", -2.815),
    ("Cc1c(C(=O)N(C)CC(F)(F)F)nnn1-c1ccccc1Cl", "Wolbachia pipientis", -1.465),
    ("Cc1cc(NC(=O)N2CCCC(O)C2)nn1-c1ccccc1Cl (configuration not stated)", "Wolbachia pipientis", -23.68),
]

Input line: So what does the record say about Percent Effect for `Cc1noc(C)c1CN1C(=O)[C@H]2CC[C@@H]1CN(Cc1cccnc1N)C2` ?
Output line: 18.74

Input line: // same read-out, input: `COc1ccc(CN(C)C2CCN(C(=O)C(C)C)CC2)c2cccnc12`
Output line: -16.31

Input line: // same read-out, input: COc1c(C2CCCN2CC(=O)Nc2nc(C)cs2)c(C)nn1C (configuration not stated)
Output line: -2.535

Input line: // same read-out, input: `O=C(O)C(F)(F)F.O=C([C@H]1C[C@H]2OCC[C@H]2N(C(=O)c2ccncc2)C1)N1CCCC1`
Output line: -2.024

Input line: // same read-out, input: `Cc1ccc2cc(C3(O)CCN(C(=O)CN4CCCC4)CC3)ccc2n1`
Output line: -0.9065

Input line: // same read-out, input: COCCC(=O)N1CCCC([C@@H]2C[C@H](C(F)F)n3ncnc3N2)C1 (some centres not stated)
Output line: 128.9

Input line: // same read-out, input: `CCN1C(=O)[C@]2(CC[C@@H]3CN(S(=O)(=O)CC(C)C)C[C@@H]32)N=C1C`
Output line: -19.96

Input line: // same read-out, input: Cc1nn(C)c(C)c1C1CCCN1CC(=O)Nc1ccncc1 (configuration not stated)
Output line: 1.396

Input line: // same read-out, input: COCCn1ccnc1C1CCCN(C(=O)CSCC2CC2)C1 (configuration not stated)
Output line: -1.205

Input line: // same read-out, input: Cc1cc(CN2CCCC2c2c(C)nn(C)c2Cl)no1 (configuration not stated)
Output line: 7.779

Input line: // same read-out, input: `Cc1nc(C(C)(C)NC(=O)Nc2ccc(C#N)cc2)no1`
Output line: 2.937

Input line: // same read-out, input: CC(=O)N1CCc2ncn(C)c2C1C(=O)N1CCCC1.O=C(O)C(F)(F)F (configuration not stated)
Output line: -4.032

Input line: // same read-out, input: CCN1CCC(CNC(=O)Nc2cnn(CC(N)=O)c2)C1 (configuration not stated)
Output line: -9.388

* * *

Listing of entries alongside the reported Percent Effect.
test system: Wolbachia pipientis; test: Anti-Wolbachia Cell-Based Screen; type: functional; set-up: scale not given: in the data most compounds retested in dose-response had high values; conditions: 5 µM
Out of some 48,000 compounds screened, about 13,000 (27%) showed an effect of 50% or more. This is one part of the list.
Reply numerically in %, unit not repeated.

Please review the entries below; each comes with its answer.
# compound, Percent Effect, %
measured = [
    ("CC(C)(C)C(O)CN1CCN(C(=O)COCC2CC2)CC1 (stereo not drawn)", -3.893),
    ("O=C(CS(=O)(=O)C1CCCC1)NC1CCCc2cc(OC(F)F)ccc21 (stereo not drawn)", -7.219),
]

Shifting focus to the compound that follows.
Input line: So what does the record say about Percent Effect for `COc1ccc2nnc(CCCC(=O)NCCC3=CCCCC3)n2n1` ?
Output line: 8.382
